Below, each of the binders is paired with its reported IC50 value.
- tgt: T1, human GLP-1 receptor (human, UniProt P43220 24-463)
- T1 construct: whole, on cells
- protocol-summary: competitive SPA binding, displacement of 125I-GLP-1(7-36)NH2 from BHK membranes with human GLP-1R, low HSA (max. 0.001%)
Numbered stars: 1 amine (or outer) side, 2 acyl side, 3 side chain; on linkers, the order of the positions; unused ones are H or OH. Square brackets hold non-standard residues; d marks the D form. Side chains are listed from the residue outwards. Ends that are not written are not given here. * marks the point of attachment. Hexadecanoyl(16-SO3H) = O=C(CCCCCCCCCCCCCCCS(=O)(=O)O)*; C18 diacid = O=C(O)CCCCCCCCCCCCCCCCC(=O)*; εLys = N[C@@H](CCCCN[*:1])C(=O)[*:2]; Cya = N[C@@H](CS(=O)(=O)O)C(=O)O; Trx = NC[C@H]1CC[C@H](C(=O)O)CC1; AEEA = NCCOCCOCC(=O)O; Aib = CC(C)(N)C(=O)O; Ahx = NCCCCCC(=O)O

binder: H[Aib]EGTFTSDVSK([AEEA-AEEA-AEEA-AEEA-AEEA-εLys-εLys-εLys-C18 diacid])YLEK([AEEA-AEEA-AEEA-AEEA-AEEA-εLys-εLys-εLys-C18 diacid])QAAREFIK([AEEA-AEEA-AEEA-AEEA-AEEA-εLys-εLys-εLys-C18 diacid])WLVRGRG (Full chemical name printed at h-0084)
IC50 (pM): 80
//
binder: H[Aib]EGTFTSDVSK([AEEA-AEEA-AEEA-AEEA-εLys-εLys-Ahx-Hexadecanoyl(16-SO3H)])YLEK([AEEA-AEEA-AEEA-AEEA-εLys-εLys-Ahx-Hexadecanoyl(16-SO3H)])QAAREFIK([AEEA-AEEA-AEEA-AEEA-εLys-εLys-Ahx-Hexadecanoyl(16-SO3H)])WLVRGRG (Full chemical name printed at h-0088; the printed name is uneven in the number of OEG units for the side chains at 18 and 22 (four opened, three closed))
IC50 (pM): 150
//
binder: H[Aib]EGTFTSDVSK([AEEA-AEEA-Cya-Trx-Hexadecanoyl(16-SO3H)])YLEK([AEEA-AEEA-Cya-Trx-Hexadecanoyl(16-SO3H)])QAAREFIK([AEEA-AEEA-Cya-Trx-Hexadecanoyl(16-SO3H)])WLVRGRG (Full chemical name printed at h-0058 (it prints 'Lys8' where Lys18 is meant))
IC50 (pM): 1600
